The measurements presented in this section are drawn from patent US20060079453A1.

Record form. Attribute: pIC50. Fill in for each entry.
Molecular target: HLA-A*2902 (human)
Test: competition, purified HLA
Answers are plain numbers, as −log10 of the molar value.

INSERT INTO measurements (binder, measured_value) VALUES
  ('PTLKEYVLDLY (modifications not checked) […]', 6.09);

Now consider the entry below.
// query Need pIC50 of FTDLRIVY (modifications not checked) , thanks.
// result 6.09
